Hey, just so you know, these numbers are from the supplement of paper PMC7877785.

- method-notes: self-splicing fitness, log relative to wild type (ln ratio); higher = more splicing; Tetrahymena group I intron in knt gene, E. coli kanamycin selection, DiMSum; sequences stand for … in CUCUCU…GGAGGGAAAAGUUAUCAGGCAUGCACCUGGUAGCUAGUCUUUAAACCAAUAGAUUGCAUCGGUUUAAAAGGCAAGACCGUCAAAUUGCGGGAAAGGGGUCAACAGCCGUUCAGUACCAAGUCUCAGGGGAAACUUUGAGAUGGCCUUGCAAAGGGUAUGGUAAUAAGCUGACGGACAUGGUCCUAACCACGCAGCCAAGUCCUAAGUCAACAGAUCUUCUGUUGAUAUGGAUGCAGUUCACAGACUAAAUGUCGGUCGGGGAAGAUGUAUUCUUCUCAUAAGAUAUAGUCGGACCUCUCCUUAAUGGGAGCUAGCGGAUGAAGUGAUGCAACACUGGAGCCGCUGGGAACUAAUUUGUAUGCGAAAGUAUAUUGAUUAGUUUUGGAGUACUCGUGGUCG;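 further: selection with 25 µg/mL kanamycin versus none on LB agar overnight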
- assay-setup: 30 °C
We use -2 as the dividing line for self-splicing fitness (ln): on or above the line is fulfilled, below is not fulfilled.

Challenge: self-splicing fitness (ln) >= -2 for CCUAAGCAAUAUUACGUGCG ?
Response given: not fulfilled

Challenge: self-splicing fitness (ln) >= -2 for GGGGAGCAAUAUUACGGUGG ?
Response given: not fulfilled

Challenge: self-splicing fitness (ln) >= -2 for ACGAAGCAAUAUUACGUGGC ?
Response given: not fulfilled

Challenge: self-splicing fitness (ln) >= -2 for AUACAGCAAUAUUACGGACG ?
Response given: fulfilled

Challenge: self-splicing fitness (ln) >= -2 for CCGAAGCAAUAUUACGACUA ?
Response given: not fulfilled

Challenge: self-splicing fitness (ln) >= -2 for CCCUAGCAAUAUUACGCCCA ?
Response given: not fulfilled

Challenge: self-splicing fitness (ln) >= -2 for GGCUAGCAAUAUUACGUACG ?
Response given: fulfilled

Challenge: self-splicing fitness (ln) >= -2 for UGUAAGCAAUAUUACGAUGA ?
Response given: fulfilled

Challenge: self-splicing fitness (ln) >= -2 for UUGCAGCAAUAUUACGGAGG ?
Response given: not fulfilled

Challenge: self-splicing fitness (ln) >= -2 for CUCGAGCAAUAUUACGCAAG ?
Response given: not fulfilled

Others:
Challenge: self-splicing fitness (ln) >= -2 for UCUCAGCAAUAUUACGGAAU ?
Response given: not fulfilled

Challenge: self-splicing fitness (ln) >= -2 for UGGCAGCAAUAUUACGUCUC ?
Response given: fulfilled

Challenge: self-splicing fitness (ln) >= -2 for CCGCAGCAAUAUUACGCAUG ?
Response given: not fulfilled

Challenge: self-splicing fitness (ln) >= -2 for CAUGAGCAAUAUUACGUGUC ?
Response given: not fulfilled

Challenge: self-splicing fitness (ln) >= -2 for CCUAAGCAAUAUUACGUGAU ?
Response given: not fulfilled

Challenge: self-splicing fitness (ln) >= -2 for AGAUAGCAAUAUUACGAAAC ?
Response given: not fulfilled

====

- method-notes: self-splicing fitness, log relative to wild type (ln ratio); higher = more splicing; Tetrahymena group I intron in knt gene, E. coli kanamycin selection, DiMSum; sequences stand for … in CUCUCU…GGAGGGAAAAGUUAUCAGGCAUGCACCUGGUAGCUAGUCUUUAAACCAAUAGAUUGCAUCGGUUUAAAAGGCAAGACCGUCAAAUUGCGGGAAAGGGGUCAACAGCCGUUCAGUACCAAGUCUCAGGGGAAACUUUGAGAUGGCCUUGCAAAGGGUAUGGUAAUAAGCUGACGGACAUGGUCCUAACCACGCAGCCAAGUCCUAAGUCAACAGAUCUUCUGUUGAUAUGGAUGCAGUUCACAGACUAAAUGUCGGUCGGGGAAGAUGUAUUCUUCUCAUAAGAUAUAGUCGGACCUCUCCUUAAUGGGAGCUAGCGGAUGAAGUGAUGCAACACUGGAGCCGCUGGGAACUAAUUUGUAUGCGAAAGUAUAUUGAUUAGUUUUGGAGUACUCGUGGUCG
- assay-setup: 37 °C
observation-type: self-splicing fitness (ln)
# output: bare number, no unit

Past entries and their recorded results:
Challenge: Quick one: self-splicing fitness (ln) of UCCAAGCAAUAUUACGUAUU ?
Response given: -2.46

Challenge: Quick one: self-splicing fitness (ln) of AGACAGCAAUAUUACGAGCA ?
Response given: -0.648

Challenge: Quick one: self-splicing fitness (ln) of UAUGAGCAAUAUUACGCUCA ?
Response given: -2.73

Others:
Challenge: Quick one: self-splicing fitness (ln) of CGGAAGCAAUAUUACGAUCU ?
Response given: -0.942

Challenge: Quick one: self-splicing fitness (ln) of CCUCAGCAAUAUUACGUAUA ?
Response given: -3.16

Challenge: Quick one: self-splicing fitness (ln) of AUCGAGCAAUAUUACGUCGC ?
Response given: -2.21

Challenge: Quick one: self-splicing fitness (ln) of CGGAAGCAAUAUUACGGAUA ?
Response given: -1.81

Challenge: Quick one: self-splicing fitness (ln) of AAGUAGCAAUAUUACGAGUU ?
Response given: -0.204

====

- method-notes: self-splicing fitness, log relative to wild type (ln ratio); higher = more splicing; Tetrahymena group I intron in knt gene, E. coli kanamycin selection, DiMSum; sequences stand for … in CUCUCU…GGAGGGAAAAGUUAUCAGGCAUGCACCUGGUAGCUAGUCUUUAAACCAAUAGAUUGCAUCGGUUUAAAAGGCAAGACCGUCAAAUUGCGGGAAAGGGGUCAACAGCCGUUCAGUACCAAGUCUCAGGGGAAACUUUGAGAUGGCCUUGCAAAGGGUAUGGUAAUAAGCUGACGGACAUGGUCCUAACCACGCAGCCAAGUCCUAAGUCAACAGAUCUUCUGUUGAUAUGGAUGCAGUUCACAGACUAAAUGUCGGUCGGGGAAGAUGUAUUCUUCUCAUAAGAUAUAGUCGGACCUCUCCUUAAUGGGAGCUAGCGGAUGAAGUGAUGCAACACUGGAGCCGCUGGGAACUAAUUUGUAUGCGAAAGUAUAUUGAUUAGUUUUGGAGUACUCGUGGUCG
- assay-setup: 37 °C
We use -0.4 as the dividing line for self-splicing fitness (ln): on or above the line is True, below is False.

Some solved cases for reference:
Challenge: self-splicing fitness (ln) >= -0.4 for ACAUAGCAAUAUUACGCUUG ?
Response given: False

Challenge: self-splicing fitness (ln) >= -0.4 for AGCUAGCAAUAUUACGUUGG ?
Response given: False

Challenge: self-splicing fitness (ln) >= -0.4 for UACUAGCAAUAUUACGCAAG ?
Response given: False

Challenge: self-splicing fitness (ln) >= -0.4 for AUACAGCAAUAUUACGUUAG ?
Response given: False

Challenge: self-splicing fitness (ln) >= -0.4 for CUGGAGCAAUAUUACGGUCG ?
Response given: True

We now examine a further sequence.
Challenge: self-splicing fitness (ln) >= -0.4 for CGAUAGCAAUAUUACGACGG ?
Response given: True

====

- method-notes: self-splicing fitness, log relative to wild type (ln ratio); higher = more splicing; Tetrahymena group I intron in knt gene, E. coli kanamycin selection, DiMSum; sequences stand for … in CUCUCU…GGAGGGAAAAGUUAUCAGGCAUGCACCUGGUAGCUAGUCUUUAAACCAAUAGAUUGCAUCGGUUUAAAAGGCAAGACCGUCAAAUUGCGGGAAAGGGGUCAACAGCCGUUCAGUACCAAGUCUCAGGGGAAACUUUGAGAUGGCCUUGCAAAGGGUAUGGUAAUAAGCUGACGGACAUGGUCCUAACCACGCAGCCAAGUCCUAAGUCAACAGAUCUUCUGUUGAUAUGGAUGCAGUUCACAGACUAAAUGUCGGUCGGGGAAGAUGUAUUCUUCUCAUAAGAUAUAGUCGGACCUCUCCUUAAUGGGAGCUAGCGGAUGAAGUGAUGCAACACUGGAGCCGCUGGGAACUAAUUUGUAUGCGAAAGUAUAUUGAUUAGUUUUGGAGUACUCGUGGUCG
- assay-setup: 37 °C
Labels assigned by self-splicing fitness (ln) range: low bin (below -1), mid bin (-1 to below -0.5), high bin (-0.5 or more)

Some solved cases for reference:
Challenge: For this sequence, which bin applies? AUAGAGCAAUAUUACGUUUU
Response given: low bin

Challenge: For this sequence, which bin applies? UGAGAGCAAUAUUACGAGAA
Response given: low bin

Challenge: For this sequence, which bin applies? GUCUAGCAAUAUUACGCCUU
Response given: high bin

Challenge: For this sequence, which bin applies? CAAAAGCAAUAUUACGCGCU
Response given: mid bin

Challenge: For this sequence, which bin applies? UACGAGCAAUAUUACGAGGU
Response given: low bin

Others:
Challenge: For this sequence, which bin applies? GACGAGCAAUAUUACGGUCU
Response given: low bin

Challenge: For this sequence, which bin applies? AACGAGCAAUAUUACGCUGG
Response given: high bin

Challenge: For this sequence, which bin applies? AGGCAGCAAUAUUACGGUAU
Response given: high bin

Challenge: For this sequence, which bin applies? AUCAAGCAAUAUUACGCCAA
Response given: mid bin

Challenge: For this sequence, which bin applies? ACCUAGCAAUAUUACGCUUG
Response given: low bin

Challenge: For this sequence, which bin applies? UCGAAGCAAUAUUACGGCCG
Response given: high bin

Challenge: For this sequence, which bin applies? GGACAGCAAUAUUACGCUAG
Response given: mid bin

Challenge: For this sequence, which bin applies? ACUUAGCAAUAUUACGGUAU
Response given: low bin

Challenge: For this sequence, which bin applies? GGCGAGCAAUAUUACGCUCA
Response given: high bin

Challenge: For this sequence, which bin applies? UCCUAGCAAUAUUACGGCAU
Response given: low bin

Challenge: For this sequence, which bin applies? ACACAGCAAUAUUACGUUCA
Response given: high bin
